Tested on: HCC 2998
protocol: NCI tumour cell line growth inhibition, 48 h
Activity calls are given as the source filed them. Cut-off read from the data, not from the text of the source: active = GI50 up to about 1.1 µM and inactive = higher.
readout_name: GI50

molecule | readout_name | value_measured
O=C(c1cccs1)N(C(=S)OCCOc1ccccc1)c1ccccc1 | GI50 | 24.7 µM (inactive)
COc1ccc(-c2ccc(C(=O)C=P(c3ccccc3)(c3ccccc3)c3ccccc3)cc2)cc1 | GI50 | 1.79 µM (inactive)
Nc1ccc2c(c1)CN1C(=O)c3ccccc3C1=N2 | GI50 | 63 µM (inactive)
CCOC(=O)C12OC(CCC1=O)C(C(=O)OC)=C2C(=O)OC (stereo unspecified) | GI50 | > 10 µM (inactive)
C#CCN(Cc1ccc2nc(-c3ccccc3)c(N)nc2c1)c1cc(OC)c(OC)c(OC)c1 | GI50 | 57.4 µM (inactive)

Which GI50 value is on record for C=CC1=C(C)c2cc3[nH]c(cc4nc(cc5[nH]c(cc1n2)c(C)c5CCC(=O)N(CC)CC)C(CCC(=O)N(CC)CC)=C4C)c(C)c3C=C ?
> 100 µM (inactive)

Likewise for O=C(O)CNc1cc(-c2ccccc2)nc(NCC(=O)O)n1 ?
> 100 µM (inactive)

Likewise for Nc1ncnc2c1ncn2C1C=CC(CP(=O)(O)O)C1 (stereo unspecified) ?
> 100 µM (inactive)

Likewise for CC1OC(OC2C(O)COC(OC3C(C)OC(OC4C(OC(=O)[C@]56CCC(C)(C)C[C@@H]5C5=CCC7[C@@]8(C)C[C@H](O)[C@H](OC9OC(CO)C(O)C(OC%10OC(CO)C(O)C(O)C%10O)C9O)[C@@](C)(CO)[C@@H]8CC[C@@]7(C)[C@]5(C)CC6)OCC(O)C4O)C(O)C3O)C2O)C(O)C(O)C1O (stereo partly specified) ?
16.2 µM (inactive)

Likewise for COc1cc(C2c3cc4c(cc3[C@@H](Nc3ccc5c(c3)OCO5)C3COC(=O)[C@H]23)OCO4)cc(OC)c1O (stereo partly specified) ?
1.42 µM (inactive)

Likewise for CC(=O)[C@]1(C)[C@H](C)O[C@](C)(CO)[C@H]1O[Si](C)(C)c1ccccc1 ?
31.5 µM (inactive)

---

Test system: OVCAR-4
protocol: NCI tumour cell line growth inhibition, 48 h
The source made the active and inactive calls. Rule as the data show it: active = GI50 up to about 1.1 µM and inactive = higher.
Tick one outcome: yes = active, no = inactive

compound | label_class
C=CC(C)CCC(C/C=C(\C)CCC=C(C)C)C(=C)CCCC(C)C (stereo unspecified) | no
COc1cc(C2C3=C(CCCC3=O)N(c3ccc(C)cc3)C3=C2C(=O)CCC3)c([N+](=O)[O-])cc1OC | no
COc1ccc(/C=C/C(=O)CCN2CCN(CCC(=O)/C=C/c3ccc(OC)cc3)CC2)cc1 | no
CC(CN(C)C)C(=O)/C=C/c1ccc(Cl)c(Cl)c1 (stereo unspecified) | no
Cc1ccc(S(=O)(=O)n2c3c(c4ccccc42)CCN2C(=O)C(S(=O)(=O)c4ccccc4)=CCC32)cc1 (stereo unspecified) | yes

What outcome does the record of this test show for CC(=O)N1C(c2[nH]c3ccccc3c2-c2ccccc2)CCN1c1ccccc1 (stereo unspecified) ?
no

Likewise for Cc1ccc2c(c1)C(=O)N(N(C)C)CC(=O)N2 ?
no

Likewise for O=C1C=C(Br)c2c(Br)sc(Br)c21 ?
no

---

Test system: SF-268
protocol: NCI tumour cell line growth inhibition, 48 h
Activity calls are given as the source filed them. No stated cut-off is given here; in the data, active = GI50 up to about 1.1 µM and inactive = higher.
readout_name: GI50

Field: example entries. Status: answers known.
compound | GI50
C=C1N(C=O)C(C)(C)N(O)C1(C)C | > 100 µM (inactive)
COc1ccc([Se]c2ccc(OC)cc2OC)c(OC)c1 | 35.6 µM (inactive)
CC(C)(C)CN1[C@@H]2CCCC[C@H]2N(CC(C)(C)C)P1(=O)C(O)/C=C/c1ccccc1 (stereo not given in full) | 39 µM (inactive)

Which GI50 value is on record for O=C1NCN(c2ccccc2)C12CCN(CC1COc3ccccc3O1)CC2 (stereo not given) ?
65.2 µM (inactive)

Likewise for CC1(C)OC2C(=O)C=C(COCc3ccccc3)C2O1 (stereo not given) ?
25.4 µM (inactive)

Likewise for CCCCNC(=S)N/C=C1\C(=O)Nc2ccccc2C1=O ?
> 10 µM (inactive)

Likewise for Cc1ccc(/N=N/c2ccc(N)cc2C)c(S(N)(=O)=O)c1 ?
> 100 µM (inactive)

Likewise for NS(=O)(=O)c1nnc(NS(=O)(=O)c2ccc(F)cc2)s1 ?
> 100 µM (inactive)

Likewise for Nn1c(Cc2ccc([N+](=O)[O-])cc2)n[nH]c1=O ?
> 100 µM (inactive)

---

Test system: SF-295
protocol: NCI tumour cell line growth inhibition, 48 h
Activity calls are given as the source filed them. No stated cut-off is given here; in the data, active = GI50 up to about 1.1 µM and inactive = higher.
Consider the following molecules and their measured GI50 readings.

Field: example entries. Status: answers known.
molecule | measured_on | GI50
C/C=C/C=C/c1nc(C#N)c(N)o1 | SF-295 | > 100 µM (inactive)
Cc1ccc(-c2cc(-c3ccco3)c(C#N)c(=O)n2C2OC(OC(=O)c3ccccc3)C(OC(=O)c3ccccc3)C2OC(=O)c2ccccc2)cc1 (stereo not drawn) | SF-295 | 59 µM (inactive)
Cc1cc(-c2nc3cccc(O)c3s2)ccc1N | SF-295 | 28.8 µM (inactive)

Which GI50 value is on record for CCN(CC)CCSc1c2ccccc2nc2cc(NCC(=O)Nc3ccccc3-c3ccccc3NC(=O)CNc3ccc4c(SCCN(CC)CC)c5ccccc5nc4c3)ccc12 ?
> 100 µM (inactive)

Likewise for O=C1/C(=C/Cc2ccco2)N=C(c2ccccc2)N1c1nc2c(Cl)cc(Cl)cc2s1 ?
32.1 µM (inactive)

---

System: OVCAR-8
protocol: NCI tumour cell line growth inhibition, 48 h
The source made the active and inactive calls. Cut-off read from the data, not from the text of the source: active = GI50 up to about 1.1 µM and inactive = higher.
readout_name: GI50

Field: example entries. Status: answers known.
molecule | readout_name | value_measured
CC(CC[C@@]1(O)OC2C[C@H]3[C@@H]4CC[C@H]5CC(OC6OC(CO)C(OC7OC(CO)C(O)C(OC8OCC(O)C(O)C8O)C7OC7OC(CO)C(O)C(O)C7O)C(O)C6O)[C@H](O)CC5(C)[C@H]4CCC3(C)C2[C@@H]1C)COC1OC(CO)C(O)C(O)C1O (stereo not given in full) | GI50 | 9.86 µM (inactive)
CCOC(=O)C1CCCC1S(=O)(=O)c1ccc(C)cc1 (stereo not given) | GI50 | > 100 µM (inactive)
O=c1[nH]nc(-c2ccccc2)c2[nH]c3c(c12)CCCc1ccccc1-3 | GI50 | 17.4 µM (inactive)
NCCCCN(CCCN)C(=O)OCc1ccccc1 | GI50 | > 100 µM (inactive)

Moving on to the next molecule.
Lookup: GI50 / OVCAR-8 / CC1(C)C=N[N+]2(C)C3C=CC(CC3)C12 (stereo not given)
> 100 µM (inactive)

---

Test system: UACC-62
protocol: NCI tumour cell line growth inhibition, 48 h
Active and inactive are the calls of the source. Rule as the data show it: active = GI50 up to about 1.1 µM and inactive = higher.
Tick one outcome: active, inactive

molecule | label_class
Cc1ccc(S(=O)(=O)c2ccc(C)cc2[N+](=O)[O-])c([N+](=O)[O-])c1 | inactive
O=c1[nH]nc(-c2ccccc2)n1/N=C\c1ccccc1 | inactive
O=C1O/C(=C(/Cl)c2c3ccccc3cc3ccccc23)c2ccccc21 | inactive
O=C1C(Cl)=C(Cl)C(Cl)(Cl)C(Cl)C1(Cl)Cl (stereo not given) | inactive
COC(=O)c1c2c(cc3c1CC1(Cc4cc5c(c(C=O)c4C1)CCCC5)C3)CCCC2 (stereo not given) | inactive
CON(C)C(=O)C(C)NC(=O)OC(C)(C)C (stereo not given) | inactive
CCOC(=O)/C(=C/c1cc(OC)ccc1OC)CC(=O)O | inactive
COc1cc(Br)cc2cc(-c3cn4ccsc4n3)c(=O)oc12 | inactive

What outcome does the record of this test show for O=c1[nH]c(=O)n(C2COC(CO)C2O)cc1F (stereo not given) ?
inactive

Likewise for Cc1ccc(S(=O)(=O)n2c3c(c4ccccc42)CCN2C(=O)C(S(=O)(=O)c4ccccc4)=CCC32)cc1 (stereo not given) ?
active

Likewise for CC(=O)C12C[C@](C#N)(N3CCCCCC3)C1C=Cc1ccccc12 (stereo not given in full) ?
inactive

Likewise for O=C1NC(=O)C(C(=O)C(=O)Nc2ccc(Cl)cc2Cl)C(=O)N1 ?
inactive

Likewise for c1cc(CSc2ncnc3[nH]cnc23)ccn1 ?
inactive

Likewise for COC1=CC(=O)C(O)=C(CC2(C)C(C)CCC3(C)C2CCCC3(C)C)C1=O (stereo not given) ?
inactive

Likewise for CCCCNC(=S)N/C=C1\C(=O)Nc2ccccc2C1=O ?
inactive

---

System: UACC-62
protocol: NCI tumour cell line growth inhibition, 48 h
Calls of active or inactive are those of the source. Rule as the data show it: active = GI50 up to about 1.1 µM and inactive = higher.
Consider the following compounds and their measured GI50 readings.

Field: example entries. Status: answers known.
compound | GI50
C[C@@H]1OC2(O)[C@H]3CCCN3S(=O)(=O)CCN2C1=O (stereo partly specified) | > 100 µM (inactive)
COc1cc(/C=N/N=C(\N)NO)c(Cl)cc1O | 47.1 µM (inactive)
Cc1cc(=O)n2nc(CSc3nnc(S)s3)sc2n1 | > 100 µM (inactive)
Cc1ccc(Nc2nc(C)c(C(=O)CC(=O)C(=O)Nc3c(C)cccc3C(C)(C)C)s2)cc1 | > 100 µM (inactive)
Cc1nc2ccccc2n1Cc1nnc(-c2ccccc2)o1 | > 100 µM (inactive)

Moving on to the next compound.
Which GI50 value is on record for O=C1CCC[C@]2(CCCC(=O)N2)C1 ?
> 100 µM (inactive)
